- systemName: T1, RHPN1, Q8TCX5
- T1 sequence (Q8TCX5 508-602, limits assumed, looked up): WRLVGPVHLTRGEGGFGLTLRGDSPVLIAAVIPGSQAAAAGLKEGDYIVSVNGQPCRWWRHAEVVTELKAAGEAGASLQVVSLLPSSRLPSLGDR
- experimentalProtocol: holdup assay
- Set-up: key: below the threshold = too weak to quantify, mostly under pKd 3.1 to 4
- testSettings: plain residues with an end cap or a label only (N-terminal biotin on a linker: ado-ado)
endpointLabel: pKd

For orientation, consider the following solved cases.
{"binder": "SRSVVESDEL [MYPN, Q86TC9]", "pKd": "below the threshold"}
{"binder": "ARESQKVSHV [FAM110B, Q8TC76]", "pKd": 4.72}
{"binder": "ARSAAASNYV [CLDN4, O14493]", "pKd": "below the threshold"}
{"binder": "SFISKKEWYV [NECTIN1, Q15223]", "pKd": "below the threshold"}
{"binder": "NISYRRESAI [KCNJ4, P48050]", "pKd": "below the threshold"}
{"binder": "PSVGSKKTVL [REELD1, A0A1B0GV85]", "pKd": 3.92}
{"binder": "PYSESDDDWC [CACNA1A, O00555]", "pKd": "below the threshold"}
{"binder": "PYPTADHMLA [JUP, P14923]", "pKd": "below the threshold"}

Value of pKd reported for the binder SPDRDRESIV [SCN5A, Q14524] is 4.89

Value of pKd reported for the binder DRIQSCLSDA [SBF1, O95248] is below the threshold
